ASSAY NAME: recombinant UMI read abundance after kanamycin selection (control-corrected) (log10(CPM+1)); higher = more efficient recombination; extreme values may be limits of the assay; sequences stand for … in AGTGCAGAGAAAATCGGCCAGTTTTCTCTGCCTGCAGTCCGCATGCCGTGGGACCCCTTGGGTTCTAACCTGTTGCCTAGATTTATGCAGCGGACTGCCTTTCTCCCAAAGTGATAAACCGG…AGGTTGGTTTCACT; site = the 11-nt donor;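 also: IS621 bridge recombinase in Escherichia coli cells against a fixed T5 target plasmid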
EXPERIMENTAL READOUT: recombinant UMI read abundance (log10)
I'd appreciate a reply containing only the number, no unit.

In: What value of measured recombinant UMI read abundance (log10) is listed for AATGTAACATGGACCGGTTTTCCCGGTAATCCGTATTTGGT (site AATGTAACTAT) ?
Out: 0.468

In: Now the sequence AGCCTGGCATGGACCGGTTTTCCCGGTAATCCGTATTTGTT (site AGCCTCGCTAA)
Out: 0.0194

In: Now the sequence GGCCACCCATGGACCGGTTTTCCCGGTAATCCGTATTTGGT (site GGCCACCCTAG)
Out: 0

In: Now the sequence GTTCGAGCATGGACCGGTTTTCCCGGTAATCCGTATTTGCG (site GTTCGAGCTGG)
Out: 0.838

In: Now the sequence CCGAATTCATGGACCGGTTTTCCCGGTAATCCGTATTTGGG (site CCGAATTCTCC)
Out: 0

In: Now the sequence ATTGATACATGGACCGGTTTTCCCGGTAATCCGTATTTGGT (site ATTGATACTAC)
Out: 1.33

In: Now the sequence TAATACTCATGGACCGGTTTTCCCGGTAATCCGTATTTGCA (site TCATACTCTTG)
Out: 1.69

In: Now the sequence TCATACTCATGGACCGGTTTTCCCGGTAATCCGTATTTGCG (site TCATACTCTGG)
Out: 0.0107

In: Now the sequence GACCTTCCATGGACCGGTTTTCCCGGTAATCCGTATTTGGT (site GACCTTCCTAC)
Out: 0.0209

----------
ASSAY NAME: recombinant UMI read abundance after kanamycin selection (control-corrected) (log10(CPM+1)); higher = more efficient recombination; extreme values may be limits of the assay; sequences stand for … in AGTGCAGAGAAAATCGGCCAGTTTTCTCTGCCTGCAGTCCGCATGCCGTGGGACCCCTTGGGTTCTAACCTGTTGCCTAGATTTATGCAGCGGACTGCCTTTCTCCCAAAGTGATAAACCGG…AGGTTGGTTTCACT; site = the 11-nt donor
EXPERIMENTAL READOUT: recombinant UMI read abundance (log10)
I'd appreciate a reply containing only the number, no unit.

In: What value of measured recombinant UMI read abundance (log10) is listed for CCTAATACATGGACCGGTTTTCCCGGTAATCCGTATTTGGC (site ACTAATACTGC) ?
Out: 0

In: Now the sequence GCGAAGCCATGGACCGGTTTTCCCGGTAATCCGTATTTGAG (site GCGAAGCCTCT)
Out: 0.00807

In: Now the sequence CTAGAGACATGGACCGGTTTTCCCGGTAATCCGTATTTGTC (site CTAGAGACTGA)
Out: 2.28

In: Now the sequence TAACGAGCATGGACCGGTTTTCCCGGTAATCCGTATTTGGG (site TAAAGAGCTCC)
Out: 0.00891

In: Now the sequence CCCTATCCATGGACCGGTTTTCCCGGTAATCCGTATTTGCC (site CCCTAACCTGG)
Out: 0

In: Now the sequence ACCCATCCATGGACCGGTTTTCCCGGTAATCCGTATTTGAC (site ACCCATCCTGT)
Out: 0.806

In: Now the sequence ATCCATGCATGGACCGGTTTTCCCGGTAATCCGTATTTGAG (site ATCCACGCTCT)
Out: 0.0124

In: Now the sequence CAGTGCTCATGGACCGGTTTTCCCGGTAATCCGTATTTGAA (site CATTGCTCTTT)
Out: 0.0098

In: Now the sequence GCCAGGCCATGGACCGGTTTTCCCGGTAATCCGTATTTGTA (site GCCATGCCTTA)
Out: 0.00384

In: Now the sequence TCTTCCCCATGGACCGGTTTTCCCGGTAATCCGTATTTGTA (site TTTTCCCCTTA)
Out: 0.00951

In: Now the sequence CGTTCGACATGGACCGGTTTTCCCGGTAATCCGTATTTGTT (site CGTTCGACTAA)
Out: 0.0172

In: Now the sequence TCATGTCCATGGACCGGTTTTCCCGGTAATCCGTATTTGTG (site TCATGTCCTCA)
Out: 0

In: Now the sequence CGCTCAGCATGGACCGGTTTTCCCGGTAATCCGTATTTGGG (site GGCTCAGCTCC)
Out: 0

In: Now the sequence AATGTAACATGGACCGGTTTTCCCGGTAATCCGTATTTGAT (site AATGTAACTAC)
Out: 0.00741

In: Now the sequence AGCTCAGCATGGACCGGTTTTCCCGGTAATCCGTATTTGGG (site AGCTCAGCTCA)
Out: 0.0167

In: Now the sequence GTAGCAACATGGACCGGTTTTCCCGGTAATCCGTATTTGTA (site GTAGCAACTTA)
Out: 2.18

In: Now the sequence CTAGTATCATGGACCGGTTTTCCCGGTAATCCGTATTTGAC (site CTATTGTCTGT)
Out: 0

In: Now the sequence CAGTTCCCATGGACCGGTTTTCCCGGTAATCCGTATTTGCT (site CAGTTCCCTAG)
Out: 0.863

In: Now the sequence GGAGTCGCATGGACCGGTTTTCCCGGTAATCCGTATTTGGT (site GGAGTCGCTAC)
Out: 0.854

In: Now the sequence GGTGCCCCATGGACCGGTTTTCCCGGTAATCCGTATTTGAC (site GGTGCCCCTGT)
Out: 0

In: Now the sequence ATCCAAGCATGGACCGGTTTTCCCGGTAATCCGTATTTGAG (site AACCAAGCTCT)
Out: 0.0115

In: Now the sequence TTTATTCCATGGACCGGTTTTCCCGGTAATCCGTATTTGAC (site TTTATTCCTGT)
Out: 0

In: Now the sequence ATTGACCCATGGACCGGTTTTCCCGGTAATCCGTATTTGGA (site ATTGACCCTTC)
Out: 0.0199

In: Now the sequence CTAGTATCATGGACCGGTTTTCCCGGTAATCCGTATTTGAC (site CTAGCATCTGT)
Out: 1.59

In: Now the sequence GGCGATCCATGGACCGGTTTTCCCGGTAATCCGTATTTGAA (site GGCGATCCTTT)
Out: 0.785

In: Now the sequence GGGGCAGCATGGACCGGTTTTCCCGGTAATCCGTATTTGCA (site GGGGCACCTTG)
Out: 0

In: Now the sequence ACAAGTTCATGGACCGGTTTTCCCGGTAATCCGTATTTGTG (site ACAAGTTCTCA)
Out: 2.42

In: Now the sequence GACGTAACATGGACCGGTTTTCCCGGTAATCCGTATTTGGC (site GACGTAACTGC)
Out: 1.72

In: Now the sequence TCCGACGCATGGACCGGTTTTCCCGGTAATCCGTATTTGCT (site TCCGACGCTAG)
Out: 0.968

In: Now the sequence TCAGAGACATGGACCGGTTTTCCCGGTAATCCGTATTTGCG (site TCAGAGCCTCG)
Out: 0.0106

In: Now the sequence GAGCCCACATGGACCGGTTTTCCCGGTAATCCGTATTTGAA (site GAGCCCACTTT)
Out: 1.73

In: Now the sequence CGATAGACATGGACCGGTTTTCCCGGTAATCCGTATTTGCC (site AGATAGACTGG)
Out: 0

In: Now the sequence AGATCATCATGGACCGGTTTTCCCGGTAATCCGTATTTGCA (site AGATCATCTTG)
Out: 2.25

In: Now the sequence ATAAGCCCATGGACCGGTTTTCCCGGTAATCCGTATTTGAC (site ATAAGTCCTGT)
Out: 0.889

In: Now the sequence TTAGCTGCATGGACCGGTTTTCCCGGTAATCCGTATTTGTG (site TTAGCCGCTCA)
Out: 0

In: Now the sequence GGATTGACATGGACCGGTTTTCCCGGTAATCCGTATTTGCC (site GGATCGACTGG)
Out: 1.06

----------
ASSAY NAME: recombinant UMI read abundance after kanamycin selection (control-corrected) (log10(CPM+1)); higher = more efficient recombination; extreme values may be limits of the assay; sequences stand for … in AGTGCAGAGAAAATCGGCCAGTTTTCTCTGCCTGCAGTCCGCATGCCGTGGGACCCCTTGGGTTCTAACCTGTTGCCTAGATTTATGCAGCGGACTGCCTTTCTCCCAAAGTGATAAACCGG…AGGTTGGTTTCACT; site = the 11-nt donor
EXPERIMENTAL READOUT: recombinant UMI read abundance (log10)
I'd appreciate a reply containing only the number, no unit.

In: What value of measured recombinant UMI read abundance (log10) is listed for ATTCGAGCATGGACCGGTTTTCCCGGTAATCCGTATTTGAA (site ATTCGAGCTTT) ?
Out: 1.31

In: Now the sequence AGCTCAACATGGACCGGTTTTCCCGGTAATCCGTATTTGGG (site AGCTCATCTCC)
Out: 0

In: Now the sequence TCGCCATCATGGACCGGTTTTCCCGGTAATCCGTATTTGTT (site TCGCCATCTAA)
Out: 0.0036

In: Now the sequence TGGCAAGCATGGACCGGTTTTCCCGGTAATCCGTATTTGGC (site TGGCAAGCTGC)
Out: 0.585

In: Now the sequence CGGGAACCATGGACCGGTTTTCCCGGTAATCCGTATTTGGT (site CGGGAACCTAT)
Out: 0

In: Now the sequence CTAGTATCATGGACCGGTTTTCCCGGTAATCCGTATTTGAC (site TTAGTATCTGT)
Out: 1.71

In: Now the sequence ATTAGGCCATGGACCGGTTTTCCCGGTAATCCGTATTTGAC (site ATCAGGCCTGT)
Out: 0.0148

In: Now the sequence GGCCTTTCATGGACCGGTTTTCCCGGTAATCCGTATTTGAC (site AGCCTTTCTGT)
Out: 0

In: Now the sequence GCAGTGGCATGGACCGGTTTTCCCGGTAATCCGTATTTGGT (site GTAGTGGCTAC)
Out: 0.0239

In: Now the sequence TTGCATGCATGGACCGGTTTTCCCGGTAATCCGTATTTGCA (site TTGCATGCTTG)
Out: 0

In: Now the sequence CCTAAGGCATGGACCGGTTTTCCCGGTAATCCGTATTTGAT (site CCTAATGCTAT)
Out: 0

In: Now the sequence GCTTGGCCATGGACCGGTTTTCCCGGTAATCCGTATTTGAT (site GCTTGACCTAT)
Out: 0.00769

In: Now the sequence CAATAGCCATGGACCGGTTTTCCCGGTAATCCGTATTTGCC (site CAATAGCCTGG)
Out: 0.755

In: Now the sequence CCGTTAGCATGGACCGGTTTTCCCGGTAATCCGTATTTGTT (site CCGTTAGCTGA)
Out: 0

In: Now the sequence CCCTTCTCATGGACCGGTTTTCCCGGTAATCCGTATTTGGC (site CCCTTCTCTAC)
Out: 0.0232

In: Now the sequence TCTTATCCATGGACCGGTTTTCCCGGTAATCCGTATTTGGA (site TCTTATCCTTC)
Out: 0.0232

In: Now the sequence CCTACAGCATGGACCGGTTTTCCCGGTAATCCGTATTTGAT (site CCTATAGCTAT)
Out: 0.002

In: Now the sequence GGAAAGACATGGACCGGTTTTCCCGGTAATCCGTATTTGCC (site GGACAGACTGG)
Out: 0
